Attribution: patent US6770669B1

measured on: MAO-B (Rattus norvegicus, UniProt P19643)
Construct: 100 μl of the mitochondrial preparation (2 mg protein/ml) is incubated for 1 hour at 37° C; from tissue; host or cells: rat cortex, mitochondrial fraction
Sequence (P19643 whole entry): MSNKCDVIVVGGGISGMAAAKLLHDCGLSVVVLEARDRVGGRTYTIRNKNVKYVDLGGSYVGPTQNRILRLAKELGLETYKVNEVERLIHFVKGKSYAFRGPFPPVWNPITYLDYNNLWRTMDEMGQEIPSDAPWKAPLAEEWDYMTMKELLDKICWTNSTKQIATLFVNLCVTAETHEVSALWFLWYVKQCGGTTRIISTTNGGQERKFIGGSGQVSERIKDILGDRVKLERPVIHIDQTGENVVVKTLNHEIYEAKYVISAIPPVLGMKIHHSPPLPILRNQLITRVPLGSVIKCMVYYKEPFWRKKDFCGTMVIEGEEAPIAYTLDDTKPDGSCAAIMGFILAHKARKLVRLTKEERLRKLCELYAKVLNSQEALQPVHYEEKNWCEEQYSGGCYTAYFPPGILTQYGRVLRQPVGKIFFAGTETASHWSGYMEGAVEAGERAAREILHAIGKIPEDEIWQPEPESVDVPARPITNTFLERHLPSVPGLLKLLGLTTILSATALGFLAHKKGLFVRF
protocol description: Effects on the bond of a specific ligand of MAO-B, [3H]Ro 19-6327 (rat cortex mitochondrial preparation)
Type: binding
condition parameters: [3H]Ro 19-6327 33 nM, 1 hour at 37° C.
measurement name: IC50

### Prompt Requested field: IC50. Item: C#CCN(C)Cc1ccc(N=C(N)c2cccs2)cc1
### Response < 25 µM

###

measurement name: IC50

### Prompt Give IC50 (neuronal constitutive NO synthase (Rattus norvegicus)) of the following compound: C#CCN(C)Cc1ccc(N=C(N)c2cccs2)cc1 [Example 1]
### Response < 3.5 µM
